- ASSAY_COMMENT: Pharmacokinetic evaluation after intramuscular injection, plasma LC/MS
- Assay type: in vivo, CD-1 mice
- CONDITION_CONTEXT: female, CD-1, mouse, im, 1000 mg/kg
Reported half-life values are given for each entry in this list.

COMPOUND	half-life [min]
COc1cc2c(cc1Cc1cccc(Cl)c1F)c(=O)c(C(=O)O)cn2[C@H](CO)C(C)C [EVG (Elvitegravir), Elvitegravir]	585
Nc1nc(=O)n([C@@H]2CS[C@H](CO)O2)cc1F [FTC (Emtricitabine), Emtricitabine]	3280

====

- ASSAY_COMMENT: Pharmacokinetic evaluation after intramuscular injection, plasma LC/MS
- Type: in vivo, CD-1 mice
- CONDITION_CONTEXT: female, CD-1, mouse, im, 1000 mg/kg

COMPOUND	Cmax / ng/mL
COc1cc2c(cc1Cc1cccc(Cl)c1F)c(=O)c(C(=O)O)cn2[C@H](CO)C(C)C [EVG (Elvitegravir), Elvitegravir]	1750
Nc1nc(=O)n([C@@H]2CS[C@H](CO)O2)cc1F [FTC (Emtricitabine), Emtricitabine]	41000

====

- ASSAY_COMMENT: Pharmacokinetic evaluation after intramuscular injection, plasma LC/MS
- Format: in vivo, CD-1 mice
- CONDITION_CONTEXT: female, CD-1, mouse, im, 1000 mg/kg

COMPOUND	MEASUREMENT_UNITS	k el
Nc1nc(=O)n([C@@H]2CS[C@H](CO)O2)cc1F [FTC (Emtricitabine), Emtricitabine]	s⁻¹	3.61e-06
COc1cc2c(cc1Cc1cccc(Cl)c1F)c(=O)c(C(=O)O)cn2[C@H](CO)C(C)C [EVG (Elvitegravir), Elvitegravir]	s⁻¹	1.97e-05

Data credit: paper PMC6583897
